# Lookup of reported protein stability index keyed by entry
B1: KCNA4 (parent)
chain: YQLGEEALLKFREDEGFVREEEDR

- Variants of: B1
- Assay Text: protein stability index of a GFP-peptide fusion (GPS, HEK-293T) (PSI 1-6); higher = more stable;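 note: lentivirally expressed fusions sorted by FACS into six bins by GFP to DsRed ratio, PSI derived from sequencing read proportions per bin multiplied by bin number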
- Condition Label: c terminus: a fixed tail appended
Lab note: jot the number down without any unit.

E5D = 4.97
E5P = 4.11
R12G = 5.08
K10Y = 3.94
V18R = 4.04
E21I = 4.07

Given the variant L3I , what is its reported protein stability index?
5.12

Record: G4Q
5.08

// same read-out, input: L8T
4.88

D14L ?
4.08

Now this one: F11I
5.12
